Origin of the recorded values: patent US5187188A

# Tested on: human platelets
# protocol: In vitro inhibition of ADP-induced human platelet aggregation in platelet-rich plasma (aggregometer method of Born)
# Assay type: cell-based
# cond: human PRP, 0.5 mcg/mL ADP, about three minutes preincubation
Structures can show the parent of a compound that is named as a salt.
Listed below: IC50 values for each entry.
measured_property: IC50 (µg/mL)

[[record]]
molecule = "CNC(=O)C(=Cc1cccc(OCC(=O)O)c1)c1nc(-c2ccccc2)c(-c2ccccc2)o1"
value_units = "µg/mL"
endpoint_value = 7

[[record]]
molecule = "N#CC(Cc1cccc(OCC(=O)O)c1)c1nc(-c2ccccc2)c(-c2ccccc2)o1 (stereo not drawn)"
value_units = "µg/mL"
endpoint_value = 0.2

[[record]]
molecule = "O=C(O)COc1cccc(CC(C(=O)O)c2nc(-c3ccccc3)c(-c3ccccc3)o2)c1 (stereo not drawn) [Compound 10b, disodium salt]"
value_units = "µg/mL"
endpoint_value = 7

